test: inhibition of endothelial tube formation, primary screen, imaging, VEGF stimulated, CD31 staining, tube area, NPC library (AID 1117340); details: VEGF-stimulated ADSC/ECFC co-culture, at 10 µM, hits give high values
Please enter YES where tube area decrease is greater than or equal to -10%, and NO where it is lower.

Structure smiles string	Label
Nc1c[n+](N2CCOCC2)no1	NO
Cc1nnc(C(=O)NC(C)(C)c2nc(C(=O)NCc3ccc(F)cc3)c(O)c(=O)n2C)o1	YES
CCCCC(=O)O[C@]1(C(=O)CO)CC[C@H]2[C@@H]3CCC4=CC(=O)CC[C@]4(C)[C@H]3[C@@H](O)C[C@@]21C	NO

Is reported tube area decrease greater than or equal to -10% here: NC(=O)c1ncn([C@@H]2O[C@H](CO)[C@@H](O)[C@H]2O)c1N
YES

Same question for CC(=O)N[C@H]1[C@H]([C@H](O)[C@H](O)CO)OC(C(=O)O)=C[C@@H]1N=C(N)N please.
YES

// query: C=C1C[C@H]2[C@@H]3C=C(C)C4=CC(=O)CC[C@]4(C)[C@H]3CC[C@]2(C)[C@@]1(OC(C)=O)C(C)=O
NO
